Tested on: RKO (Colorectal Carcinoma)
Test: combination Emax (second highest fraction inhibited in the dose matrix, 72 h); higher = more inhibition; extreme values may be limits of the assay
combination Emax: recorded values

A selection of reference data follows.
- Molecule: "CC1(C)CCC(CN2CCN(c3ccc(C(=O)NS(=O)(=O)c4ccc(NCC5CCOCC5)c([N+](=O)[O-])c4)c(Oc4cnc5[nH]ccc5c4)c3)CC2)=C(c2ccc(Cl)cc2)C1 [Venetoclax] + C[C@@H]1COCCN1C2=NC(=NC(=C2)C3(CC3)[S@](=N)(=O)C)C4=C5C=CNC5=NC=C4 [AZD6738] (first compound max 1 µM, 7x7, partner max 10 µM)"
  Obs value: 0.869
- Molecule: "C[C@@H]1COCCN1c1cc(C2([S@](C)(=N)=O)CC2)nc(-c2ccnc3[nH]ccc23)n1 [AZD6738] + Nc1ccn([C@@H]2O[C@H](CO)[C@@H](O)C2(F)F)c(=O)n1 [Gemcitabine] (first compound max 10 µM, 7x7, partner max 0.3 µM)"
  Obs value: 0.954

Item: Cc1c2c(nn1C)CSCc1cc(n(C)n1)CSc1cc(c3ccccc3c1)OCCCc1c(C(=O)O)n(C)c3c-2c(Cl)ccc13 [AZD5991] + Nc1ccn([C@@H]2O[C@H](CO)[C@@H](O)C2(F)F)c(=O)n1 [Gemcitabine] (first compound max 1 µM, 7x7, partner max 0.3 µM) Test system: RKO (Colorectal Carcinoma) Read-out: combination Emax Value: ?
0.936

Item: CC1(C)CCC(CN2CCN(c3ccc(C(=O)NS(=O)(=O)c4ccc(NCC5CCOCC5)c([N+](=O)[O-])c4)c(Oc4cnc5[nH]ccc5c4)c3)CC2)=C(c2ccc(Cl)cc2)C1 [Venetoclax] + Cc1cc2ncnn2cc1Nc1ncc2c(n1)n(C1CCOCC1)c(=O)n2C [AZD7648] (first compound max 1 µM, 7x7, partner max 10 µM) Test system: RKO (Colorectal Carcinoma) Read-out: combination Emax Value: ?
0.275

Item: CC1(C)CCC(CN2CCN(c3ccc(C(=O)NS(=O)(=O)c4ccc(NCC5CCOCC5)c([N+](=O)[O-])c4)c(Oc4cnc5[nH]ccc5c4)c3)CC2)=C(c2ccc(Cl)cc2)C1 [Venetoclax] + CN(C)CCCOc1ccc(-c2ccc3ncc4c(c3c2)n(C2CCOCC2)c(=O)n4C)cn1 [AZD0156] (first compound max 1 µM, 7x7, partner max 1 µM) Test system: RKO (Colorectal Carcinoma) Read-out: combination Emax Value: ?
0.381

Item: CN(C)CCCOc1ccc(-c2ccc3ncc4c(c3c2)n(C2CCOCC2)c(=O)n4C)cn1 [AZD0156] + C=CCn1c(=O)c2cnc(Nc3ccc(N4CCN(C)CC4)cc3)nc2n1-c1cccc(C(C)(C)O)n1 [AZD1775] (first compound max 1 µM, partner max 1 µM) Test system: RKO (Colorectal Carcinoma) Read-out: combination Emax Value: ?
0.719

Item: CC1(C)CCC(CN2CCN(c3ccc(C(=O)NS(=O)(=O)c4ccc(NCC5CCOCC5)c([N+](=O)[O-])c4)c(Oc4cnc5[nH]ccc5c4)c3)CC2)=C(c2ccc(Cl)cc2)C1 [Venetoclax] + Cn1cnc2c(F)c(Nc3ccc(Br)cc3Cl)c(C(=O)NOCCO)cc21 [Selumetinib] (first compound max 1 µM, 7x7, partner max 3 µM) Test system: RKO (Colorectal Carcinoma) Read-out: combination Emax Value: ?
0.441
